// values below are reported log10 solubility kinetic
Conditions: buffer; pH 7.4; 200.0 µM
Log scale reminder: solubility kinetic in µg/mL, then log10 taken.

• Cc1cccc2sc(NC(=O)CN3C(=O)NC4(CCCC4)C3=O)nc12 = 1.67
• Cn1c(N)c(C(=O)COC(=O)/C=C/c2ccccc2)c(=O)n(C)c1=O = 1.06
• CC(O)c1cccc(NC(=O)C2CCCCC2)c1 (stereo unspecified) = 1.41
• Cn1c(-c2ccccc2)cnc1NCc1ccccc1 = 1.54
• Cc1ccc(OC(C)C(=O)N(C)Cc2ccccc2)c([N+](=O)[O-])n1 (stereo unspecified) = 1.67
• COc1ccc2c(COC(=O)[C@H](C)NS(=O)(=O)c3ccccc3F)cc(=O)oc2c1 = 1.77
• COc1ccc(CCNC(=O)c2cc(Cl)nc3ccccc23)cc1 = 0.77

Challenge: Note down log10 solubility kinetic recorded for CC(C)c1ccc(NC(=O)CN2C(=O)NC3(CCCCCCC3)C2=O)cc1
Response given: 1.21

* * *

Settings: buffer; pH 7.4; 200.0 µM
// values below are reported solubility kinetic

These solved cases illustrate the format of a correct answer.
- Cn1c(O)c(/C=N/NC(=O)c2ccncc2)c(=O)[nH]c1=S: > 45.8 µg/mL
- CCOC(=O)c1sc(=NC(=O)CCSc2ccccc2)n(C)c1C: < 0.4 µg/mL
- CCN1CCc2c(OCC(=O)Nc3cccc(C)c3)cccc2C1=O: > 50.8 µg/mL
- Nc1ccc(C(=O)NCc2ccccc2)cc1: > 33.9 µg/mL

# ---- query compound ----
Challenge: Note down solubility kinetic recorded for O=C1NC(=O)C(c2cccs2)(c2cccs2)N1
Response given: > 39.6 µg/mL

* * *

Details: buffer; pH 7.4; 200.0 µM
Each record's solubility kinetic is compared with bin 0: < 6 µg/mL; bin 1: ≥ 6 µg/mL and < 30 µg/mL; bin 2: ≥ 30 µg/mL to give its class.

* COc1ccc(C2=NCCNC(C(F)(F)F)=C2)cc1 | bin 2

Challenge: Please report the category associated with Cc1ccc(C)c(S(=O)(=O)N2CCN(C(=O)[C@@H]3CCCN3C(=O)c3cccs3)CC2)c1 , nothing else.
Response given: bin 2

Challenge: Please report the category associated with O=C(NCCN1CCCCC1)Nc1cccc(C(F)(F)F)c1 , nothing else.
Response given: bin 2

* * *

Details: buffer; pH 7.4; 200.0 µM
attribute-measured: solubility kinetic

These solved cases illustrate the format of a correct answer.
* S=c1[nH]cc(-c2ccc(Cl)cc2)n1Cc1ccccc1 | < 0.3 µg/mL
* COc1ccc(CN2CCOCCOCCOCCOCCOCC2)cc1 | > 57.5 µg/mL

Challenge: Note down solubility kinetic recorded for Cc1ccccc1-c1nc2ccc(Cl)cc2c(=O)n1O
Response given: > 43 µg/mL

Challenge: Note down solubility kinetic recorded for CCCC(=O)N1CCCC(c2nc(-c3cccc(OC)c3)no2)C1 (stereo not given)
Response given: > 49.4 µg/mL

Challenge: Note down solubility kinetic recorded for O=C(CCC1CCCCC1)NCc1cccnc1
Response given: > 37 µg/mL

* * *

// values below are reported solubility kinetic
Settings: buffer; pH 7.4; 200.0 µM

These solved cases illustrate the format of a correct answer.
* Nc1nc2nonc2nc1N | > 22.8 µg/mL
* COc1ccccc1NC(=O)CSc1nnc(-c2ccccn2)o1 | > 51.4 µg/mL
* CC(=O)Oc1ccccc1C(=O)NC(C)CCc1ccccc1 (stereo unspecified) | > 46.7 µg/mL
* CN(C)CC(C)(C)CNCc1cc(=O)oc2ccc3ccccc3c12 | > 50.8 µg/mL
* Cc1ccc(C(=O)Nc2cccc(C(=O)NC3CCCCC3)c2)cc1 | < 0.4 µg/mL

# ---- query compound ----
Challenge: Note down solubility kinetic recorded for Cc1nn(-c2ccccn2)c(N)c1N=O
Response given: > 30.5 µg/mL

* * *

Details: buffer; pH 7.4; 200.0 µM
// values below are reported log10 of solubility kinetic
Log scale reminder: solubility kinetic in µg/mL, then log10 taken.

- CNc1nc(-c2c(C)n(C)c3ccc(OC)cc23)cs1: 1.38

Challenge: Note down log10 of solubility kinetic recorded for O=C(NC(=S)Nc1ccccc1OC(F)F)c1ccc2c(c1)OCO2
Response given: 0.64

Challenge: Note down log10 of solubility kinetic recorded for CN(CC(=O)Nc1ccc(Cl)c(C(F)(F)F)c1)C(=O)COC(=O)C1CC2CCCC(C1)C2=O (stereo not given)
Response given: 1.77

Challenge: Note down log10 of solubility kinetic recorded for O=C(O)C(Cc1c[nH]c2ccccc12)N1C(=O)c2ccccc2C1=O (stereo not given)
Response given: 1.62

Challenge: Note down log10 of solubility kinetic recorded for CC(C)(C)Nc1nc(Cl)nc(NCc2ccccc2)n1
Response given: 0.90

Challenge: Note down log10 of solubility kinetic recorded for Cc1ccc(S(=O)(=O)CC(=O)Nc2cccc(C)n2)cc1
Response given: 1.06

Challenge: Note down log10 of solubility kinetic recorded for COc1nc(C)cc(C)c1S(=O)(=O)c1ccc(Cl)cc1
Response given: 0.23

Challenge: Note down log10 of solubility kinetic recorded for O=C(/C=C/c1ccc([N+](=O)[O-])cc1)OCC(=O)c1ccc[nH]1
Response given: 0.48

Challenge: Note down log10 of solubility kinetic recorded for Cn1c(=O)n(C)c2cc(NC(=O)Cc3ccccc3[N+](=O)[O-])ccc21
Response given: 1.68

Challenge: Note down log10 of solubility kinetic recorded for Cc1ccccc1/C=C/c1nc2ccccc2c(=O)[nH]1
Response given: -0.40

Challenge: Note down log10 of solubility kinetic recorded for COc1ccccc1N1CCN(C2CCC(C)CC2)CC1 (stereo not given)
Response given: 1.50

Challenge: Note down log10 of solubility kinetic recorded for Cc1ccc(S(=O)(=O)Nc2ccc3c(c2)OCCO3)cc1
Response given: 1.63

Challenge: Note down log10 of solubility kinetic recorded for COc1cc(CN2CCN(Cc3cccc(OC)c3OC)CC2)cc(OC)c1
Response given: 1.68

Challenge: Note down log10 of solubility kinetic recorded for O=C(Nc1ccc(O)cc1)/C(=C\C=C\c1ccccc1)NC(=O)c1ccccc1
Response given: 1.17

Challenge: Note down log10 of solubility kinetic recorded for O=C(/C=C/c1c(F)cccc1Cl)N1CCOCC1
Response given: 1.60

Challenge: Note down log10 of solubility kinetic recorded for COc1ccc(C(CNC(=O)c2cc(S(=O)(=O)N3CCN(c4ccccc4)CC3)ccc2Cl)N(C)C)cc1 (stereo not given)
Response given: 1.69

Challenge: Note down log10 of solubility kinetic recorded for O=C1CN(c2ccc(F)cc2)C(=S)N1c1ccccc1
Response given: 0.93

* * *

Conditions: buffer; pH 7.4; 200.0 µM
// values below are reported solubility kinetic

• Cc1ccc(C2(C)NC(=O)N(CC(=O)N(c3ccccc3)C3CCS(=O)(=O)C3)C2=O)cc1 (stereo not given) = > 68.3 µg/mL
• CCn1cc(S(=O)(=O)Nc2ncccn2)cn1 = > 38 µg/mL
• COc1ccc(NC(=S)NCc2cccnc2)cc1OC = > 45.5 µg/mL

Challenge: Note down solubility kinetic recorded for Cn1c(-c2cccc([N+](=O)[O-])c2)[n+](C)c2ccccc21.[Cl-]
Response given: > 45.6 µg/mL

Challenge: Note down solubility kinetic recorded for CC(C)c1nc2sc3c(=S)nc[nH]c3c2c2c1CCC2
Response given: 4.5 µg/mL

Challenge: Note down solubility kinetic recorded for COc1cccc(C(O)c2nc3ccccc3n2C(C)C)c1OC (stereo not given)
Response given: > 49 µg/mL

Challenge: Note down solubility kinetic recorded for Cc1cccc(N2CC(O)(c3cccs3)[N+]3=C2CCCCC3)c1.[Br-] (stereo not given)
Response given: > 61.1 µg/mL

Challenge: Note down solubility kinetic recorded for COP(=O)(OC)c1nc(-c2ccc(C)cc2)oc1N1CCCCC1
Response given: > 52.6 µg/mL

* * *

Settings: buffer; pH 7.4; 200.0 µM
// values below are reported solubility kinetic

These solved cases illustrate the format of a correct answer.
* O=Cc1cnc(N2CCN(c3ccccc3)CC2)s1 | > 41 µg/mL
* CC(C)=CC(=O)N1CC[C@@H](N2CCN(c3ccccc3F)CC2)[C@H](O)C1 | > 54.2 µg/mL
* COc1ccccc1NS(=O)(=O)c1cn(C)cn1 | > 40.1 µg/mL
* COC(=O)c1ccn(CC(=O)NC2CCCCC2)n1 | > 39.8 µg/mL
* CCOc1ccc(S(=O)(=O)NC2=NCCCCC2)cc1 | > 44.5 µg/mL

Challenge: Note down solubility kinetic recorded for Cc1cccc(-c2noc(CCC(=O)NC3CCCC3)n2)c1
Response given: > 44.9 µg/mL

Challenge: Note down solubility kinetic recorded for CCN(CC)CCCNC(=O)Cn1ccc2ccccc2c1=O
Response given: > 47.3 µg/mL

* * *

Settings: buffer; pH 7.4; 200.0 µM
// values below are reported solubility kinetic
Respond with the bare value in µg/mL.

• Cl.NCCC(=O)N1c2ccccc2Sc2ccccc21 = 29.9
• CCN(CC)S(=O)(=O)c1ccc2oc(Nc3ccccc3)nc2c1 = 6.4

Challenge: Note down solubility kinetic recorded for CCn1cc(C(=O)NCc2ccc(OC)cc2)c(=O)c2ccc(C)nc21
Response given: 0.4

Challenge: Note down solubility kinetic recorded for COc1ccc(CC(=O)N2CCN(c3cccc(Cl)c3)CC2)cc1OC
Response given: 48.7

Challenge: Note down solubility kinetic recorded for O=C(COC(=O)c1ccc2c(c1)OCCO2)Nc1ccc(F)cc1F
Response given: 6.9

Challenge: Note down solubility kinetic recorded for CC1CCCN(Cc2c(O)ccc3c4c(c(=O)oc23)CCCC4)C1 (stereo not given)
Response given: 44

Challenge: Note down solubility kinetic recorded for COc1ccccc1OCCn1c(SCC(N)=O)nc2ccccc21
Response given: 45.4

Challenge: Note down solubility kinetic recorded for Cc1[nH]c2ccccc2c1SCC(=O)N1CCCCCC1
Response given: 25.8

Challenge: Note down solubility kinetic recorded for Cc1cc(Nc2ccc(N3CCOCC3)cc2)c2cccc(C)c2n1.Cl
Response given: 55

Challenge: Note down solubility kinetic recorded for CCN(CC)c1cc(C)c(C#N)c2nc3ccccc3n12
Response given: 2

Challenge: Note down solubility kinetic recorded for Cc1ccc(CNC(=O)CN2C(C)CCCC2C)cc1 (stereo not given)
Response given: 28.9

Challenge: Note down solubility kinetic recorded for CCOc1ccc2nc(SCC(=O)NCc3ccc(S(N)(=O)=O)cc3)[nH]c2c1
Response given: 35.2

Challenge: Note down solubility kinetic recorded for CCCCOC(=O)c1ccc(NC(=O)C(=O)NCc2ccccn2)cc1
Response given: 0.8

Challenge: Note down solubility kinetic recorded for Cc1ncc([N+](=O)[O-])n1CC(=O)Nc1ccc(F)cc1F
Response given: 34
